target: aurora2 kinase (Homo sapiens); construct: 6 His with spacer region and rTEV protease cleavage site (pFastBac HTc) (N); assay: In vitro aurora2 kinase inhibition test
Sequence (O14965 whole entry): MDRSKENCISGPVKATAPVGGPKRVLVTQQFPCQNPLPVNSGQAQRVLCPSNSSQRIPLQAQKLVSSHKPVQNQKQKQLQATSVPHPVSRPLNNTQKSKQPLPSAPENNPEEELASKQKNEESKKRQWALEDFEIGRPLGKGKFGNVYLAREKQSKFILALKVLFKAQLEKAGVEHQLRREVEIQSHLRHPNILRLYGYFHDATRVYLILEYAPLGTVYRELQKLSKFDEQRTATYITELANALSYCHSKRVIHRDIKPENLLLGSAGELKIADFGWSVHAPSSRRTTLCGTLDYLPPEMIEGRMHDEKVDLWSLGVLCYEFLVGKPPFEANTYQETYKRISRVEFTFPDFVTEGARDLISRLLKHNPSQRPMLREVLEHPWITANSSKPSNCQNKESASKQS
MEASURE_NAME: pIC50
A value of pIC50 is the negative decimal logarithm of a concentration given in moles per litre.

Recorded result, COc1ccnc(COc2ccc(Nc3ncnc4cc(OC)c(OC)cc34)cc2C)c1 , pIC50: 6.33
